Tested on: HBV
assay details: Anti-HBV activity: HBV DNA in culture medium by qPCR, HepG2.2.15 cells
Assay type: cell-based
details: Hepatitis B virus, 144 h, 6 days treatment
Description: HepG2.2.15 (the HepG2.2.15 cell line can be produced by transfection of the HepG2 cell line as described in Sells, Chen, and Acs 1987 (Proc. Natl. Acad. Sci. USA 84: 1005-1009), and the HepG2 cell line is available from ATCC® under number HB-8065™) […] The change of HBV DNA level induced by the compounds was assessed by quantitative real-time polymerase chain reaction (qPCR). […] EC50 and CC50 values are calculated by the GRAPHPAD PRISM software.
measured metric: EC50

Reference set, count: 10
{"compound": "CC(C)OC(=O)C1=C(C23C4C5C2C2C3C4C52C(=O)O)NC(c2nccs2)=NC1c1ccc(F)c(F)c1Cl (single isomer, unassigned) [Ib-12]", "recorded result": "28 µM"}
{"compound": "CCOC(=O)C1=C(C23C4C5C2C2C3C4C52C(=O)O)NC(c2nccs2)=N[C@@H]1c1ccc(F)c(F)c1Br (stereo in doubt) [Ib-14]", "recorded result": "41 µM"}
{"compound": "COC(=O)C1=C(C23C4C5C2C2C3C4C52C(=O)O)NC(c2nccs2)=N[C@@H]1c1ccc(F)c(F)c1Br (stereo in doubt) [Ib-13]", "recorded result": "> 25 µM"}
{"compound": "CCOC(=O)C1=C(C23C4C5C2C2C3C4C52C(=O)O)NC(c2nccn2C)=NC1c1ccc(F)c(F)c1Cl (single isomer, unassigned) [Ia-4]", "recorded result": "> 50 µM"}
{"compound": "COC(=O)C1=C(C23C4C5C2C2C3C4C52C(=O)O)NC(c2nccn2C)=NC1c1ccc(F)c(F)c1Cl (single isomer, unassigned) [Ia-2]", "recorded result": "> 100 µM"}
{"compound": "COC(=O)C1=C(C23C4C5C2C2C3C4C52C(=O)O)NC(c2nccs2)=N[C@@H]1c1cccc(F)c1Cl (single isomer, unassigned) [Ib-8]", "recorded result": "> 50 µM"}
{"compound": "CCOC(=O)C1=C(C23C4C5C2C2C3C4C52CC(C)(C)C(=O)O)NC(c2nccs2)=N[C@@H]1c1ccc(F)c(F)c1Cl (single isomer, unassigned) [Ib-28]", "recorded result": "16 µM"}
{"compound": "COC(=O)C1=C(C23C4C5C2C2C3C4C52C(=O)O)NC(c2ncc(F)cc2F)=NC1c1cccc(F)c1C (single isomer, unassigned) [Ib-26]", "recorded result": "> 12.5 µM"}
{"compound": "COC(=O)C1=C(C23C4C5C2C2C3C4C52C(=O)O)NC(c2nccs2)=NC1c1ccc(F)cc1C (single isomer, unassigned) [Ib-21]", "recorded result": "> 50 µM"}
{"compound": "CCOC(=O)C1=C(C23C4C5C2C2C3C4C52C(=O)O)NC(c2nccs2)=N[C@@H]1c1cccc(F)c1Cl (stereo in doubt) [Ib-15]", "recorded result": "> 50 µM"}

*Q* What EC50 appears in the records for this compound with HBV? CCOC(=O)C1=C(C23C4C5C2C2C3C4C52C(=O)O)NC(c2nccs2)=N[C@H]1c1ccc(F)cc1 (stereo in doubt) [Ib-24]
*A* > 25 µM

*Q* What EC50 appears in the records for this compound with HBV? CCOC(=O)C1=C(C23C4C5C2C2C3C4C52C(=O)O)NC(c2nccs2)=N[C@@H]1c1cccc(F)c1Br (single isomer, unassigned) [Ib-19]
*A* > 25 µM
